biological target: Sodium channel protein type 3 subunit alpha (Rattus norvegicus); test: Inhibition of rat NaV1.3 by electrophysiological method
Sequence (P08104 whole entry): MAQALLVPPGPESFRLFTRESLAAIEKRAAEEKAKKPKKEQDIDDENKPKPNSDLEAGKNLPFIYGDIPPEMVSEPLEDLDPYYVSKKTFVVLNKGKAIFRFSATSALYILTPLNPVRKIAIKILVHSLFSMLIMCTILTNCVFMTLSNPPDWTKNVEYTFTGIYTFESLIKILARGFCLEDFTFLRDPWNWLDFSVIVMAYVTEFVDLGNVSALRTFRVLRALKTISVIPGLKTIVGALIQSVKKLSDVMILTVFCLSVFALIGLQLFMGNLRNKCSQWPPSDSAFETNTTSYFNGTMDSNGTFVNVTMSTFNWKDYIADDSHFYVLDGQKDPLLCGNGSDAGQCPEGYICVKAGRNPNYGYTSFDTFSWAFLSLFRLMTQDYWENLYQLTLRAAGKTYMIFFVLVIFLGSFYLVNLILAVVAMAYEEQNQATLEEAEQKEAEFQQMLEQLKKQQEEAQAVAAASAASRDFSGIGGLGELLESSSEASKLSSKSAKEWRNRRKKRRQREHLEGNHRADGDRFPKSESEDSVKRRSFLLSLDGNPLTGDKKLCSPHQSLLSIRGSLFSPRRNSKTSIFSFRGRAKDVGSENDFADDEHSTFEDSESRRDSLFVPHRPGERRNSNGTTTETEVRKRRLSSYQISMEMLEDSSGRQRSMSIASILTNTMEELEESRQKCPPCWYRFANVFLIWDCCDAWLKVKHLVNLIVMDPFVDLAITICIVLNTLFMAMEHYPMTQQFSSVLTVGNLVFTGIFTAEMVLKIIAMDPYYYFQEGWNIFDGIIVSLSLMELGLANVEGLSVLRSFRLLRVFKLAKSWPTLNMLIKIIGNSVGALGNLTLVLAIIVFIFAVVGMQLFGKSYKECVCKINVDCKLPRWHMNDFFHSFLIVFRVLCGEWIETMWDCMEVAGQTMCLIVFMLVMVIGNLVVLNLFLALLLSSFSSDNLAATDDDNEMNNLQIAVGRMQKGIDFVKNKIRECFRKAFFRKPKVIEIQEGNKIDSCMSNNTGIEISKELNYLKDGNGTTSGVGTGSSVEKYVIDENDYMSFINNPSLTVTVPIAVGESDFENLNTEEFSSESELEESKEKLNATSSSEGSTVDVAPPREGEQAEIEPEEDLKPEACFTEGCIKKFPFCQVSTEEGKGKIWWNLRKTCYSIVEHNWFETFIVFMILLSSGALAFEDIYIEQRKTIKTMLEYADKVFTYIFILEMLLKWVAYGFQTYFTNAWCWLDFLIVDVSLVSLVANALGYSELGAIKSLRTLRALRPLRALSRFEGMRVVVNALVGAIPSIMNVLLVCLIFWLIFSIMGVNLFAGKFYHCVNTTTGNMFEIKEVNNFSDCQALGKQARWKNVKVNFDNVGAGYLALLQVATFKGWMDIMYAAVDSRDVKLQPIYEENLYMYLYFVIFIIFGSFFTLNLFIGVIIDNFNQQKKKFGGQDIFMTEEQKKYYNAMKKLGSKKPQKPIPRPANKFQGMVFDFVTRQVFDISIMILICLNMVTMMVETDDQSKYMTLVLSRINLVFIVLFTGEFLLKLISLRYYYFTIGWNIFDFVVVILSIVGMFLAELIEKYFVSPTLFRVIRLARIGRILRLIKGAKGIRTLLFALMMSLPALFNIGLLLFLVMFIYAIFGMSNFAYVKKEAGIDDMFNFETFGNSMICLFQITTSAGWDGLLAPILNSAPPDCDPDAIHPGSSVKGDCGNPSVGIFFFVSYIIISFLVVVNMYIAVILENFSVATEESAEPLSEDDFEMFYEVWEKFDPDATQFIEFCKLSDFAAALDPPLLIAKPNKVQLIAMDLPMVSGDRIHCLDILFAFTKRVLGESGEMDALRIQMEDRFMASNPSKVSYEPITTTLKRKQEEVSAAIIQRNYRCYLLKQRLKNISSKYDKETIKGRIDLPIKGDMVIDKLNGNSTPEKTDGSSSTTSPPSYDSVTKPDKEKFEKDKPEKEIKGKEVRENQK
Result type: IC50 (nM)

{"Smiles notation": "O=C(Nc1ccc(S(=O)(=O)Nc2nccs2)cc1)C(c1ccccc1)c1ccccc1", "Test result": 6}

---

assay: Dissociation constant, pKa of compound; type: physicochemical
Listing of recorded pKa by entry.
Result type: pKa

{"Smiles notation": "O=C(NCc1ccc(OC(F)(F)F)c(Cl)c1)c1ccc(S(=O)(=O)Nc2cncnc2)c(F)c1", "Result type": "pKa", "Test result": 4.6}
{"Smiles notation": "O=C(NCc1ccc(OC(F)(F)F)c(Cl)c1)c1ccc(S(=O)(=O)Nc2ncns2)c(F)c1", "Result type": "pKa", "Test result": 3.3}
{"Smiles notation": "O=C(NCc1ccc(OC(F)(F)F)c(Cl)c1)c1ccc(S(=O)(=O)Nc2nccs2)c(F)c1", "Result type": "pKa", "Test result": 6.4}
{"Smiles notation": "O=S(=O)(Nc1ncns1)c1ccc(OCc2ccc(OC(F)(F)F)c(Cl)c2)cc1", "Result type": "pKa", "Test result": 4.1}

// data source = ChEMBL document CHEMBL4257443
